target: T1, N1 binding to cell surface expressed hJ1 (Homo sapiens, UniProt P78504); assay: Notch binding blocking assay (FACS): N1 EGF11-13 beads staining human J1-expressing cells; conditions: final antibody concentration 0.6 μg/ml
T1 construct: cell expressed full length human J1 (hJ1; HEK293 transfectants); expressed in transfected cells; host or cells: HEK293
T1 sequence (P78504 34-1218): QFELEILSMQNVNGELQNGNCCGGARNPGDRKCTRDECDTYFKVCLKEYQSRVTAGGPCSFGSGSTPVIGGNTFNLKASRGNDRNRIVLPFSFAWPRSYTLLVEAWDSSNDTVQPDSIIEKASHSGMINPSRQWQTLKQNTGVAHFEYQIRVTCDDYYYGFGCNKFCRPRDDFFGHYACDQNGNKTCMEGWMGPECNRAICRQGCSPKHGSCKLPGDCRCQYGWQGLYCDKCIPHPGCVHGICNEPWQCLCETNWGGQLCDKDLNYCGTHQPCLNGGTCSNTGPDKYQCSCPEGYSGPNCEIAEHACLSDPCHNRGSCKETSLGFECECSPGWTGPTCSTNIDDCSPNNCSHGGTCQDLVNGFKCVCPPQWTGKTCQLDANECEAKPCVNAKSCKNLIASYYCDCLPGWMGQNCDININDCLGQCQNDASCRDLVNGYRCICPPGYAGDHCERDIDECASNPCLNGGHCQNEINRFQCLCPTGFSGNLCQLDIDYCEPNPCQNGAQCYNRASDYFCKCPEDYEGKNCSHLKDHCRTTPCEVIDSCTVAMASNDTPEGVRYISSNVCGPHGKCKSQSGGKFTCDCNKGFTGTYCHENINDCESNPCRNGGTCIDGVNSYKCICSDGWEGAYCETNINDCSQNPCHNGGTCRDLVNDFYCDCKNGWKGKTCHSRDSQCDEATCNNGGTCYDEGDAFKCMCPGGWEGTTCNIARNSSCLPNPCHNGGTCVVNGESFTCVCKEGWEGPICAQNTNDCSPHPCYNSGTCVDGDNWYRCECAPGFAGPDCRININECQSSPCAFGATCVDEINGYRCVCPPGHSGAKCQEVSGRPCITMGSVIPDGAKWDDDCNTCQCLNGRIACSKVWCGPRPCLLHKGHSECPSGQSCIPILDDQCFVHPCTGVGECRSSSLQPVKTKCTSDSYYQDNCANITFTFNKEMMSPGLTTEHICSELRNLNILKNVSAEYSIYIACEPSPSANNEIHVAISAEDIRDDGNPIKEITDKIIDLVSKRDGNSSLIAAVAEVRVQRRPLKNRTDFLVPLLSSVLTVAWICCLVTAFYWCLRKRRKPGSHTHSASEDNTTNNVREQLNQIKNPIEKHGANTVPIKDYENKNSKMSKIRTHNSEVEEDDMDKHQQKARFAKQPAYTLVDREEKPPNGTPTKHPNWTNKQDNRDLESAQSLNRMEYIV
ENDPOINT NAME: Blocking of Notch1 binding to cell surface Jagged 1

| MOLECULE | RESULT |
| --- | --- |
| J1-183D chimeric: chimeric antibody with unaltered CDRs: J1-183D_VL + J1-183D_VH (antibody, V domains shown) VH: QVQLQQPGTELVRPGVSVKISCKVSGYAFTDYAIHWIMQSHAKSLEWIGIINTYYGDSKYNQKFKDKATMTVDKSSNTAYMELARLTSEDSAIYYCARGYDGFAYWGQGTLVTVSS VL: DIQLTQSPASLSASVGETVTFTCRTSENIYSYLTWYQQKQGKSPQLLVYNAKILAAGVPSRFSGYGSGTQFSLKINSLQPEDFGTYYCQHHYDIPWTFGGGTKLEIK | + (Complete blocking) |
| J1-65D variant 5: humanised/de-immunised J1-65D: J1-65D_VL_2 + J1-65D_VH_1 (antibody, V domains shown) VH: QVQLVQSGAELKKPGSSVKVSCKASGYTFTDYEMHWVRQAPGQGLEWMGAIQPGGGGTAYNQKFKGRVTLTADKSTSTAYMELSSLRSEDTAVYYCTRRGYDDYPFAYWGQGTLVTVSSASTKGP VL: DIQMTQSPSSLSASVGDRVTITCRASGNIHNYLAWYQQKPGKAPKLLIYNAKTLADAVPSRFSGSGSGTDYTLTISSLQPEDFATYYCQHFWSAPWTFGGGTKLEIKRT | + (Complete blocking) |
